Assay: in vivo
Details: male, Sprague-Dawley, rat, 400 mg/kg
value_kind: concentration at 1 h (ng/mL)
Give the quantity in ng/mL, number only.

Which concentration at 1 h is listed for O=C(O)c1cc(N=Nc2ccc(S(=O)(=O)Nc3ccccn3)cc2)ccc1O ?
1140

* * *

Assay: Exposure and pharmacokinetics of sulfasalazine in spinal cord and plasma of SOD1 mice
Conditions: SOD1, mouse, plasma, ip, 200 mg/kg, mean, SOD1 mice; 200 mg/kg IP; 60 min; n=3
value_kind: concentration at 60 min (ng/mL)
Give just the numeric value; ng/mL need not be written.

Return reported concentration at 60 min; argument: O=C(O)c1cc(/N=N/c2ccc(S(=O)(=O)Nc3ccccn3)cc2)ccc1O [Sulfasalazine]
40400
